# Tested on: Escherichia coli TOP10
# Assay Protocol: shrunken log2 fold change of peptide-encoding DNA abundance (4.5 h post-induction vs induction); higher = less antimicrobial activity (less host growth inhibition)
# Conditions Used: time post-induction: 4.5 h; library: site-saturation at positions 5, 18, 19, 20

| Primary Sequence | shrunken log2 fold change |
| --- | --- |
| RRIRWRPPRLPRPRPRPFVNPRP | -0.483 |
| RRIRNRPPRLPRPRPRPKCIPRP | -0.223 |
| RRIRNRPPRLPRPRPRPEKAPRP | -0.0149 |
| RRIRKRPPRLPRPRPRPKLSPRP | -0.0159 |
| RRIRSRPPRLPRPRPRPHQHPRP | -0.321 |
| RRIRHRPPRLPRPRPRPVNVPRP | 0.0798 |
| RRIRQRPPRLPRPRPRPVGYPRP | 0.101 |
| RRIRHRPPRLPRPRPRPQMTPRP | -0.104 |
| RRIRIRPPRLPRPRPRPPLAPRP | 0.293 |
| RRIRFRPPRLPRPRPRPWAMPRP | -0.0609 |
| RRIRRRPPRLPRPRPRPVLTPRP | 0.386 |
| RRIRNRPPRLPRPRPRPSTPPRP | -0.103 |
| RRIRGRPPRLPRPRPRPAYCPRP | 0.114 |
| RRIRKRPPRLPRPRPRPMESPRP | 0.0143 |
| RRIRCRPPRLPRPRPRPWEYPRP | 0.0155 |

---

# System: Escherichia coli TOP10;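 further: peptides expressed intracellularly from a pBAD plasmid library in pooled LB shake-flask culture, induced with 0.3% L-arabinose, DNA abundance read by NGS, three biological replicates, DESeq2 with apeglm shrinkage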
# Assay Protocol: shrunken log2 fold change of peptide-encoding DNA abundance (4.5 h post-induction vs induction); higher = less antimicrobial activity (less host growth inhibition)
# Conditions Used: time post-induction: 4.5 h; library: site-saturation at positions 5, 18, 19, 20
# shrunken log2 fold change per entry
Reported Metric: shrunken log2 fold change

| Primary Sequence | Assay System | Obs Value |
| --- | --- | --- |
| RRIRERPPRLPRPRPRPVMMPRP | Escherichia coli TOP10 | -0.144 |
| RRIRTRPPRLPRPRPRPRSQPRP | Escherichia coli TOP10 | 1.58 |
| RRIRARPPRLPRPRPRPSCCPRP | Escherichia coli TOP10 | 0.207 |
| RRIRMRPPRLPRPRPRPKFLPRP | Escherichia coli TOP10 | 0.192 |
| RRIRKRPPRLPRPRPRPYAFPRP | Escherichia coli TOP10 | -0.111 |
| RRIRKRPPRLPRPRPRPCYMPRP | Escherichia coli TOP10 | -0.195 |
| RRIRERPPRLPRPRPRPFAEPRP | Escherichia coli TOP10 | -0.326 |
| RRIRIRPPRLPRPRPRPWGEPRP | Escherichia coli TOP10 | -0.0259 |
| RRIRARPPRLPRPRPRPVFHPRP | Escherichia coli TOP10 | -0.253 |
| RRIRWRPPRLPRPRPRPWDEPRP | Escherichia coli TOP10 | -0.106 |
| RRIRERPPRLPRPRPRPGYTPRP | Escherichia coli TOP10 | 0.0628 |
| RRIRDRPPRLPRPRPRPSYNPRP | Escherichia coli TOP10 | -0.285 |
| RRIRTRPPRLPRPRPRPGWAPRP | Escherichia coli TOP10 | 0.622 |
| RRIRFRPPRLPRPRPRPKYIPRP | Escherichia coli TOP10 | -0.678 |
| RRIRFRPPRLPRPRPRPYMTPRP | Escherichia coli TOP10 | -0.49 |

Where do these numbers come from? They come from the supplement of paper PMC9112550.
